FYI, the data here is from PubChem BioAssay (NCI).

# procedureDetails: NCI Yeast Anticancer Drug Screen. Data for the bub3 strain (AID 167)
# experimentalContext: S. cerevisiae bub3 mutant strain, at 50.0 µM, active compounds read high
Compounds without any hit were thinned out: in the full panel of roughly 79,000, 15% have a hit. Calls of active or inactive are those of the source. No stated cut-off is given here; in the data, active means growth inhibition above about 70%; inactive means the rest.
propertyName: growth inhibition

| molecule | growth inhibition |
| --- | --- |
| N#CCCc1nc(N)nc(N)n1 | -17.7% (inactive) |
| Brc1ccc(-c2ccc(-c3ccc(Br)cc3)s2)cc1 | -1.55% (inactive) |
| CC(C)(O)C(O)(c1ccccc1)c1ccccc1 | 5.95% (inactive) |

Now for another entry.
Dear colleague, I am looking for the recorded growth inhibition of the following molecule: `CCN(CC)CCN(C(=Nc1ccccc1)N1CCCCC1)c1ccccc1`
28.1% (inactive)

----------
# procedureDetails: NCI Yeast Anticancer Drug Screen. Data for the rad50 strain (AID 155);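 further: 0% = growth of vehicle-only cultures of the same strain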
# experimentalContext: S. cerevisiae rad50 strain growth inhibition; at 50.0 µM; active compounds read high
Compounds without any hit were thinned out: in the full panel of roughly 79,000, 15% have a hit.
propertyName: growth inhibition (%)
# number only, unit % dropped from output

| compound | growth inhibition (%) |
| --- | --- |
| C=CC1=C(C)C2=NC1=CC1=NC(=CC3=C(C)C4=C(O)C(C(=O)OC)C(=C5NC(=C2)C(C)C5CCC(=O)OC/C=C(\C)CCCC(C)CCCC(C)CCCC(C)C)C4=N3)C(CC)=C1C (stereo not given) | -17.7 |
| CCOP(=O)(OCC)C(Cc1ccc(OC)c(OC)c1)N=C(c1ccccc1)c1ccccc1 (stereo not given) | 4.8 |
| Oc1ccccc1C=Nc1ccc(Cl)cc1 | -1.35 |
| C/C=C\C=C\C(=O)O | -30.4 |

Now for another entry.
Dear colleague, I am looking for the recorded growth inhibition of the following compound: `N/N=C(/c1ccc(Cl)cc1)N1CCOCC1`
15.4

----------
# procedureDetails: NCI Yeast Anticancer Drug Screen. Data for the bub3 strain (AID 167)
# experimentalContext: S. cerevisiae bub3 mutant strain, at 50.0 µM, active compounds read high
# Procedure: Growth inhibition of yeast strains with defined genetic alterations is measured as a screen for potential anti-cancer activity. Selected strains with alterations in DNA damage repair or cell cycle control were exposed to compounds and growth inhibition was measured relative to vehicle treated controls. The strain used in this assay is bub3
This is part of a sample that, as a whole, favours compounds with a hit. Of some 79,000 tested, about 15% had one in any assay.
propertyName: growth inhibition (%)
# number only, unit % dropped from output

Here are 4 compounds together with their reported answers.
| compound | resultUnit | growth inhibition |
| --- | --- | --- |
| CC1=C(C#N)C(=O)OC1(C)C1CCCC(=O)C1 (configuration not stated) | % | 1.95 |
| NCCCCCOCCCCCN | % | 3.8 |
| C/C(=N/NC(=O)C1CCCO1)c1ccc(C)cc1 (configuration not stated) | % | -6.5 |
| N#CC1=C(c2ccccc2)NNC(c2ccc(Cl)cc2)CC1=O (configuration not stated) | % | -22.6 |

Dear colleague, I am looking for the recorded growth inhibition of the following compound: `N#CCCCOc1ccccc1`
-2.05

Dear colleague, I am looking for the recorded growth inhibition of the following compound: `C/C(=N\N(C)C)c1sc(-n2nc(-c3ccccc3)cc2-c2ccccc2)nc1C`
11

Dear colleague, I am looking for the recorded growth inhibition of the following compound: COc1ccc(-c2c(C(C)=O)c(C)n(C3OC(CO)C(O)C(O)C3O)c(=S)c2C#N)cc1 (configuration not stated)
26.2
